Hey, just so you know, these numbers are from paper PMC10447463.

# ASSAY INFO: Turbidity, derived count rate of scattered light
# Type: physicochemical
# CONDITION SUMMARY: Fig S8 panels B, D; turbidity, derived count rate of scattered light
EXPERIMENTAL READOUT: Count Rate
When you answer, write just the number.

// query Count Rate value for entry CKFKQFF [CK15]
2.57

// query Count Rate value for entry RGDSGGGGGGKIKIQIC [TM114 / RC17]
10416.2

// query Count Rate value for entry KIKIQIC [TM112 / CN11]
980.67

// query Count Rate value for entry CKIKQIINMWQ [MG5a / CK17]
8316.83

// query Count Rate value for entry CKFKQFFNM [CK14]
27264.3

// query Count Rate value for entry KIKQIINMWQ [JG2]
615.53

// query Count Rate value for entry HHHHKIKIQINMYYYY [TM16]
5658.77

// query Count Rate value for entry QCKIKQIINMWQ [reference compound]
2602.27

// query Count Rate value for entry CQFQFQF [QBL4]
7928.97

// query Count Rate value for entry CSISIQI [TM141]
10241.1

// query Count Rate value for entry CKWKWQW [KB4]
7511.27

// query Count Rate value for entry CKFKFQF [BL4]
5303.37

// query Count Rate value for entry KIKQIIN [JGA3]
64.03

// query Count Rate value for entry KFKFQFNMWQ [JG4]
734.63

// query Count Rate value for entry QCKIKIQINMWQ [EF-C opt]
8271.27

// query Count Rate value for entry CKFKFQFNM [BL3]
2223.63

// query Count Rate value for entry KIKIQIN [JGB3]
43.43

// query Count Rate value for entry KWKWQW [KB3]
1544.87

// query Count Rate value for entry CKIKIQI [MG3b]
2432.9

// query Count Rate value for entry HHHHKIKIKIKIWWWW [TM4]
23756.7

// query Count Rate value for entry QCKFKQFFNMWQ [CK10]
18911.4

// query Count Rate value for entry CKIKQII [MG4a]
74.6

// query Count Rate value for entry HIHIQIC [CN12]
260.57

// query Count Rate value for entry HHHHKIKIKIKIYYYY [TM6]
12792.5

// query Count Rate value for entry CKFKFQFW [TM72]
29210.5

// query Count Rate value for entry CHLHLQL [CN9]
1154.63

// query Count Rate value for entry CKAKAQANMWQ [BL8]
8.97

// query Count Rate value for entry QCKAKAQA [CK24]
1319.1
